assayedTarget: CA-IX-His-ECD (his-V5 tagged version of the CA IX protein, extracellular domain) (human, UniProt Q16790 38-414)
assayExplanation: ELISA on CA-IX-His-ECD
endpoint: OD (OD)
Reply with just the number (in OD).

Endpoint output: OD of AB-MN-21.14.1 (antibody, human IgG1, V domains shown, also called 21.14.1 j; AX014H21-14-1) VH: QVQLQESGPGLVKPSETLSLTCTVSGGSISSYYWSWIRQPPGKGLEWIGYIYYSGSTNYNPSLKSRVTISVDTSKNQFSLKLSSVTAADTAVYYCARRGYDFLTGYDYFDYWGQGTLVTVSS VL: DIQMTQSPSSVSASVGDRVTITCRASQGISSWLAWFQQKPGKAPKLLIYAASSLQSGVPSRFSGSGSGTDFTLTISSLQPEDFATYYCQQANSFPITFGQGTRLEIK . Value?
1.78

Endpoint output: OD of AB-MN-21.17.1 (antibody, human IgG1, V domains shown, also called 21.17.1 I; AX014H21-17-1) VH: QVQLQESGPGLVKPSETLSLTCTVSGGSISSYYWSWIRQPAGKGLEWIGRIYTSGSTNYNPSLKSRVTMSVDTSKNQFSLKLSSVTAADTAVYYCARDGQWLEDYGMDVWGQGTTVTV VL: EIVLTQSPGTLSLSPGERATLSCWASQSVFSNYLAWYQQKPGQAPRLLIYGASSRATGIPDRFSGSGSGTDFPLTISRLEPEDFAVYYCQQYGSSPLTFGGGTKVEIK . Value?
1.85

Next up:
Endpoint output: OD of AB-MN-22.14 (antibody, human IgG2, V domains shown, also called AX014H22-14) VH: QVQLQESGPGLVKPSETLSLTCTVSGGSVISGGYYWSWIRQPPGKGLEWIGYIYYSGSSNYNPSLKSRVTISVDASKNQFSLRLSSVTAADTAVYYCARSMVRGVSFDYWGQGTLVTVSS VL: DIQMTQSPSSLSASVGDRVTITCRASQGIRNDLGWYQQKPGKAPKRLIYAASSLQSGVPSRFSGSGSGTEFTLTISSLQPEDFATYYCLQHNSYPLTFGGGTKVEIK . Value?
0.763
